Record form. Attribute: melting point. Fill in for each entry.

Dear colleague, I am looking for the recorded melting point of the following compound: NC(=O)NN=Cc1ccc(Oc2ccc(Cl)cc2F)cc1 218 to 220 °C

// same read-out, input: NC(=O)NN=Cc1ccc(Oc2ccc(C(F)(F)F)cc2)cc1 [Example 34c] 119 to 122 °C

// same read-out, input: NC(=O)NN=Cc1ccc(Cc2ccccc2)cc1 [Example 33b, 4-Benzylbenzaldehyde semicarbazone] 118 to 120 °C

Sourced from patent US6638947B2
